# Measurement Notes: Tmax in monkey at 3 mg/kg, po
# Format: ADME, organism-based, Macaca mulatta
# Parameters: dose 3 mg/kg, route oral
# Conditions Used: rhesus monkey, in vivo

- Sample Smiles: "CCc1cc(NC[C@@H](O)CO)nc(-c2cc(F)c(Cl)cc2F)n1"
  Tmax / h: 2.2

====

# Measurement Notes: Volume of distribution at steady state in mouse at 1 mg/kg, iv
# Assay type: ADME, organism-based
# Parameters: dose 1 mg/kg, route intravenous
# Conditions Used: in vivo, read-out: Vdss
Endpoint: Vd (L/kg)

- Sample Smiles: "CCc1cc(NC[C@@H](O)CO)nc(-c2cc(F)c(Cl)cc2F)n1"
  Reading Unit: "L/kg"
  Recorded Result: 6.9

====

# Measurement Notes: Volume of distribution at steady state in monkey at 1 mg/kg, iv
# Format: ADME, organism-based, Macaca mulatta
# Design: dose 1 mg/kg, route intravenous
# Conditions Used: rhesus monkey, in vivo, read-out: Vdss
Endpoint: Vd (L/kg)

- Sample Smiles: "CCc1cc(NC[C@@H](O)CO)nc(-c2cc(F)c(Cl)cc2F)n1"
  Recorded Result: 4.7

====

# Experimental Target: Glucose-dependent insulinotropic receptor (Homo sapiens)
# Sequence (whole entry): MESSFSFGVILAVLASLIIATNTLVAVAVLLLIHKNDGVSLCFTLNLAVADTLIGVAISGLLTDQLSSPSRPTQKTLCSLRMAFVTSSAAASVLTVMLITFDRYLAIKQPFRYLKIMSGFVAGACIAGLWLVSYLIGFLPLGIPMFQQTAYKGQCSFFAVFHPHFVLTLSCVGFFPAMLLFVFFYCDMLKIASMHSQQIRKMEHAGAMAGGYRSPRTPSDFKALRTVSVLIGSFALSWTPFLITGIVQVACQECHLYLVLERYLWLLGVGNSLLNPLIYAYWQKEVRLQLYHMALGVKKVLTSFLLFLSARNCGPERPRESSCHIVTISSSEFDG
# Measurement Notes: Intrinsic activity at human GPR119 expressed in HEK293 cells assessed as stimulation of cAMP level at 10 uM incubated for 6 hrs by luciferase activity based luminometry relative to 10 uM 2-(2-(4-bromophenyl)-6-methylpyrimidin-4-ylamino)ethanol
# Type: functional, cell-based
The entries below come with measured Intrinsic activity values attached.

- Sample Smiles: "Cc1cc(NCCc2ccc[n+]([O-])c2)nc(-c2ccc(Br)c(F)c2)n1"
  Experimental Target: "Glucose-dependent insulinotropic receptor (Homo sapiens)"
  Intrinsic activity: "573%"
- Sample Smiles: "Cc1cc(NCCc2ccc[n+]([O-])c2)nc(-c2cc(F)c(Br)cc2F)n1"
  Experimental Target: "Glucose-dependent insulinotropic receptor (Homo sapiens)"
  Intrinsic activity: "588%"
- Sample Smiles: "CCc1cc(NC[C@@H](O)CO)nc(-c2ccc(Br)c(F)c2)n1"
  Experimental Target: "Glucose-dependent insulinotropic receptor (Homo sapiens)"
  Intrinsic activity: "284%"
- Sample Smiles: "Cc1cc(NCCc2ccc[n+]([O-])c2)nc(-c2cc(F)c(Br)c(F)c2)n1"
  Experimental Target: "Glucose-dependent insulinotropic receptor (Homo sapiens)"
  Intrinsic activity: "493%"
- Sample Smiles: "Cc1cc(NCCc2cc[nH]c(=O)c2)nc(-c2ccc(Br)c(F)c2)n1"
  Experimental Target: "Glucose-dependent insulinotropic receptor (Homo sapiens)"
  Intrinsic activity: "617%"
- Sample Smiles: "Cc1cc(NCCc2ccc[n+]([O-])c2)nc(-c2cc(F)c(Cl)cc2F)n1"
  Experimental Target: "Glucose-dependent insulinotropic receptor (Homo sapiens)"
  Intrinsic activity: "536%"
- Sample Smiles: "CCc1cc(NCCc2cc[nH]c(=O)c2)nc(-c2cc(F)c(Cl)cc2F)n1"
  Experimental Target: "Glucose-dependent insulinotropic receptor (Homo sapiens)"
  Intrinsic activity: "578%"
- Sample Smiles: "CCc1cc(NC[C@H](O)CO)nc(-c2ccc(Br)c(F)c2)n1"
  Experimental Target: "Glucose-dependent insulinotropic receptor (Homo sapiens)"
  Intrinsic activity: "283%"
- Sample Smiles: "Cc1cc(NCCc2ccc[n+]([O-])c2)nc(-c2ccc(Cl)cc2)n1"
  Experimental Target: "Glucose-dependent insulinotropic receptor (Homo sapiens)"
  Intrinsic activity: "376%"
